System: transformed human cell lines (A549, HT29, Saos-2)
procedure_text: 72-h MTT cytotoxicity assay, average over cell lines
Assay type: cell-based
assay_setup: average of A549, HT29, Saos-2, read-out: 72-h MTT IC50 Average
Mark y only for IC50 values smaller than 4 µM; exact matches and larger values are n.

Task: Is IC50 of COc1ccc(Nc2nccc(-c3sc(C)nc3C)n2)cn1 [Compound 6] strictly below 4 µM?
Output: n

Task: Is IC50 of COc1ccc(Nc2nccc(-c3sc(N)nc3C)n2)cn1 [Compound 5] strictly below 4 µM?
Output: y

Task: Is IC50 of Cc1c(-c2ccnc(Nc3ccc(Cl)nc3)n2)sc(=O)n1C [Compound 4] strictly below 4 µM?
Output: y

Task: Is IC50 of Cc1nc(N)sc1-c1ccnc(Nc2ccc(Cl)nc2)n1 [Compound 7] strictly below 4 µM?
Output: y

Task: Is IC50 of Cc1nc(C)c(-c2ccnc(Nc3cccnc3)n2)s1 [Compound 1] strictly below 4 µM?
Output: y

----------
target_under_test: CDK9/cyclin T1 (Homo sapiens, UniProt P50750)
Sequence (P50750 whole entry): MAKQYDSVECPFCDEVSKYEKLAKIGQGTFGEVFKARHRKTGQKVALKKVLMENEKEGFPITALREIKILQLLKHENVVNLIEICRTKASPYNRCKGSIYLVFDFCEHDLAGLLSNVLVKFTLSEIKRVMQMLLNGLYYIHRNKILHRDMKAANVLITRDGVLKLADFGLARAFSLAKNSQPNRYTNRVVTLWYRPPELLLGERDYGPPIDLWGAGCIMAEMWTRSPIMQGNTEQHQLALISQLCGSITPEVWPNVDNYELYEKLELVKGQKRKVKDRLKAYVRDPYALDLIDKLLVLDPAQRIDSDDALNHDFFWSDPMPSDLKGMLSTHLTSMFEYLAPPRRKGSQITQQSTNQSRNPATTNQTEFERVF
Sequence (O60563 whole entry partner): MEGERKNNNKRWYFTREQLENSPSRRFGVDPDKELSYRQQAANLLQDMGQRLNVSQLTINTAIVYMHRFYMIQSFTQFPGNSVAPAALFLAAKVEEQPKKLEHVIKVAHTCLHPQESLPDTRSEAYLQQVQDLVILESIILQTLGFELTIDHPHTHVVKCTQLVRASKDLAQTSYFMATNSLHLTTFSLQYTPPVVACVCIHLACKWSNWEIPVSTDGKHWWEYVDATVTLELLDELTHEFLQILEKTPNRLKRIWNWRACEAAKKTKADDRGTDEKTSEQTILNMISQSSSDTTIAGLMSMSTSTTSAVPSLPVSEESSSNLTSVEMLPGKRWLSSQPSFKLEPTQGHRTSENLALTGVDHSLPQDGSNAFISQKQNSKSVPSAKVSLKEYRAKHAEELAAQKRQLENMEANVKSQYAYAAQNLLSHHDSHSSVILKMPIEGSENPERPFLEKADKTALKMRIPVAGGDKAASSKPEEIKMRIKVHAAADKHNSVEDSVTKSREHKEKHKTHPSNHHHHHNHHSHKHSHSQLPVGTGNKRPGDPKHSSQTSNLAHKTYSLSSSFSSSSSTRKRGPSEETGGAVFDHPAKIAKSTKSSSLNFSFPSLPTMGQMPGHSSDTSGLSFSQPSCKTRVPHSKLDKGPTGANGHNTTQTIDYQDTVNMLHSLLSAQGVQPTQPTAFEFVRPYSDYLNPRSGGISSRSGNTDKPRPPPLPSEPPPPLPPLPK
procedure_text: Kinase assay, incorporation of radioactive phosphate from ATP
assay_setup: 100 μM ATP, 30° C.; read-out: Kinase inhibition Ki CDK9/cyclin T1
Kindly state Ki for each of the entries shown.
Returns: string containing the number followed by the unit.

Lookup result for `CNc1nc(C)c(-c2ccnc(Nc3ccc(N4CCN(C)CC4)nc3)n2)s1` ; measured Ki: 80 nM

Lookup result for `CCn1c(C)c(-c2ccnc(Nc3ccc(OC)nc3)n2)sc1=O` ; measured Ki: 27 nM

Lookup result for `CNc1nc(C)c(-c2ccnc(Nc3ccc(Cl)nc3)n2)s1` ; measured Ki: 110 nM

Lookup result for `CNc1nc(C)c(-c2ccnc(Nc3ccc(OC)nc3)n2)s1` ; measured Ki: 6 nM

Lookup result for `Cc1nc(C)c(-c2ccnc(Nc3ccc(N4CCCC4)nc3)n2)s1` ; measured Ki: 100 nM

Lookup result for `COc1ccc(Nc2nccc(-c3sc(C)nc3C)n2)cn1` ; measured Ki: 280 nM

Lookup result for `COc1ccc(Nc2nccc(-c3sc(N)nc3C)n2)cn1` ; measured Ki: 5 nM

Lookup result for `Cc1nc(C)c(-c2ccnc(Nc3cccnc3)n2)s1` ; measured Ki: 80 nM

Lookup result for `Cc1nc(N)sc1-c1ccnc(Nc2ccc(Cl)nc2)n1` ; measured Ki: 5 nM

Lookup result for `Cc1nc(C)c(-c2ccnc(Nc3ccc(Cl)nc3)n2)s1` ; measured Ki: 970 nM

Lookup result for `Cc1c(-c2ccnc(Nc3ccc(Cl)nc3)n2)sc(=O)n1C` ; measured Ki: 21 nM

Lookup result for `CCNc1nc(C)c(-c2ccnc(Nc3ccc(OC)nc3)n2)s1` ; measured Ki: 90 nM

Lookup result for `COc1ccc(Nc2nccc(-c3sc(N(C)C)nc3C)n2)cn1` ; measured Ki: 140 nM

Lookup result for `COCCNc1nc(C)c(-c2ccnc(Nc3ccc(OC)nc3)n2)s1` ; measured Ki: 120 nM

----------
Kindly state Ki for each of the entries shown.
target_under_test: CDK7/cyclin H (Homo sapiens, UniProt P50613)
Sequence (P50613 whole entry): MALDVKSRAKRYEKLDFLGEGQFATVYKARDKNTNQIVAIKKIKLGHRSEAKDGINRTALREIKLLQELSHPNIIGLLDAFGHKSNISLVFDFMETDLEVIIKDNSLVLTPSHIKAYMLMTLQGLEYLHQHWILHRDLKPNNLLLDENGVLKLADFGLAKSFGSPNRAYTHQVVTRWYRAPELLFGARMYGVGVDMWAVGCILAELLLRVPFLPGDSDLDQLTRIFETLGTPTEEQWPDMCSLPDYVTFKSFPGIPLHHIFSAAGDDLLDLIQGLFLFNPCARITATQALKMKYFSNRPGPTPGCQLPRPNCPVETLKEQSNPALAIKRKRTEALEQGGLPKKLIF
Sequence (P51946 whole entry partner): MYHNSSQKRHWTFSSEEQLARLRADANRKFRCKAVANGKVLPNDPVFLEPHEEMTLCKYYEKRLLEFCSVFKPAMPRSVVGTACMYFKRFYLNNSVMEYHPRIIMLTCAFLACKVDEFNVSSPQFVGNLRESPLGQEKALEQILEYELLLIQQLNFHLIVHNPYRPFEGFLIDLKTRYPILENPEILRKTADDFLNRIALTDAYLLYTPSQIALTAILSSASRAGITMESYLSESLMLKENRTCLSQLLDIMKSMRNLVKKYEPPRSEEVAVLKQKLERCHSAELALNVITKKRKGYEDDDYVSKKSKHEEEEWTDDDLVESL
procedure_text: Kinase assay, incorporation of radioactive phosphate from ATP
assay_setup: 100 μM ATP, 30° C.; read-out: Kinase inhibition Ki CDK7/cyclin H
Give the value in nM but do not write nM after it.

Lookup result for COc1ccc(Nc2nccc(-c3sc(C)nc3C)n2)cn1 [Compound 6] ; measured Ki: 1400

Lookup result for CNc1nc(C)c(-c2ccnc(Nc3ccc(N4CCN(C)CC4)nc3)n2)s1 [Compound 15] ; measured Ki: 280

Lookup result for COc1ccc(Nc2nccc(-c3sc(N)nc3C)n2)cn1 [Compound 5] ; measured Ki: 710

Lookup result for CCn1c(C)c(-c2ccnc(Nc3ccc(OC)nc3)n2)sc1=O [Compound 11] ; measured Ki: 230

Lookup result for COCCNc1nc(C)c(-c2ccnc(Nc3ccc(OC)nc3)n2)s1 [Compound 13] ; measured Ki: 650

Lookup result for Cc1nc(C)c(-c2ccnc(Nc3ccc(N4CCCC4)nc3)n2)s1 [Compound 14] ; measured Ki: 730

Lookup result for CNc1nc(C)c(-c2ccnc(Nc3ccc(OC)nc3)n2)s1 [Compound 8] ; measured Ki: 430

Lookup result for Cc1nc(C)c(-c2ccnc(Nc3ccc(Cl)nc3)n2)s1 [Compound 3] ; measured Ki: 7200

Lookup result for Cc1nc(N)sc1-c1ccnc(Nc2ccc(Cl)nc2)n1 [Compound 7] ; measured Ki: 1500

Lookup result for COc1ccc(Nc2nccc(-c3sc(N(C)C)nc3C)n2)cn1 [Compound 10] ; measured Ki: 2300

Lookup result for CCNc1nc(C)c(-c2ccnc(Nc3ccc(OC)nc3)n2)s1 [Compound 12] ; measured Ki: 130
